Test system: NKG2A+/NKG2C− NK cells
protocol.description: NK cell activation markers in NKG2A+/NKG2C- NK cells incubated with peptide and K562 expressing HLA-E (inhibition)
Type: cell-based, human
measurement.parameters: NKG2A+/NKG2C- NK cells, K562/HLA-E, Trial 2
Where no end group is shown, it is not given here.
reported.endpoint: percentage of CCL3+ NK cells (%)
// return numeric value only (unit: %, not printed)

Completed entries (count: 2):
>  <record.sequence>
TAPARTMFL [human13, TAPARTMFL]

>  <percentage of CCL3+ NK cells [%]>
75.9

$$$$
>  <record.sequence>
RMPPRSVLL [human12]

>  <percentage of CCL3+ NK cells [%]>
2.96

$$$$

# input Report percentage of CCL3+ NK cells for TLPKRGLFL [human2, TLPKRGLFL] please.
# output 34.9

# input Please look up its percentage of CCL3+ NK cells: VMAPQSLLL [VMAPQSLLL (PQS), negative control peptide, reference compound]
# output 70.6

# input Would you kindly share the measured percentage of CCL3+ NK cells for TLPERTLYL [human7, peptide ECEL1 269-277 derived from the human proteome] ?
# output 1.85

# input Name the recorded percentage of CCL3+ NK cells for NMPARTVLF [human14, peptide MTREX 490-498 derived from the human proteome] .
# output 6.94

---

Tested on: NKG2A−/NKG2C− NK cells
protocol.description: NK cell activation markers in control NKG2A-/NKG2C- NK cells incubated with peptide and K562 expressing HLA-E
Format: cell-based, human
measurement.parameters: Trial 4
Where no end group is shown, it is not given here.
reported.endpoint: percentage CD107+ NK cells (%)
The figure you give is taken to be in %; do not add the unit.

Guide cases for percentage CD107+ NK cells, answers given:
>  <record.sequence>
QMPSRSLLF [human1, QMPSRSLLF]

>  <reported.endpoint>
percentage CD107+ NK cells

>  <unit.name>
%

>  <data.value>
29.5

$$$$
>  <record.sequence>
TLPKRGLFL [human2, TLPKRGLFL]

>  <reported.endpoint>
percentage CD107+ NK cells

>  <unit.name>
%

>  <data.value>
30.1

$$$$

Read the next record carefully.
# input Param item = VMPPRTLLL [human15, peptide HLA-A 3-11 derived from the human proteome] ; retrieve measured percentage CD107+ NK cells.
# output 29.6

---

experimental.target: HLA-E (Homo sapiens, UniProt P13747)
Construct: expressed in transfected cells; host or cells: RMA-S/HLA-E cells (antigen processing-defective lymphoma cell line)
Sequence (P13747 22-358): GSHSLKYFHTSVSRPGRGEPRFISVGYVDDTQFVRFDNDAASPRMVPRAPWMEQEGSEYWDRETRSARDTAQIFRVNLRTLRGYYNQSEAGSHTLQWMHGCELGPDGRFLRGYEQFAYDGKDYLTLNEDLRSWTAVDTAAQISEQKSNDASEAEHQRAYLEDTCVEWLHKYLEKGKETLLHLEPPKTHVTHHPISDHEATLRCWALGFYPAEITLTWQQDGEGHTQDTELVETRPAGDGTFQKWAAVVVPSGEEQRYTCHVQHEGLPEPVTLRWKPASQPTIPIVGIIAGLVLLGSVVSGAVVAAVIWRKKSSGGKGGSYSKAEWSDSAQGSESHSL
Sequence (P61769 21-119 partner): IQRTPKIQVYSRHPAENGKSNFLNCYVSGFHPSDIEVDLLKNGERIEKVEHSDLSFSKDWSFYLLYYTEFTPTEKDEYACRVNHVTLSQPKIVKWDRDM
protocol.description: HLA-E surface stabilization assay with RMA-S/HLA-E cells
Format: cell-based
measurement.parameters: 30 μM peptide, 16 hours, anti-HLA-E antibody, Trial 3
Where no end group is shown, it is not given here.
reported.endpoint: HLA-E surface expression stability (GeoMFI)
Please give a number only; it is taken to be in GeoMFI.

>  <record.sequence>
FLPNRSLLF [human8, peptide SLC52A3 354-362 derived from the human proteome]

>  <experimental.target>
HLA-E (Homo sapiens, UniProt P13747)

>  <data.value>
1049

$$$$
>  <record.sequence>
VLPHRTQFL [CMV1, novel CMV-derived peptide UL120 72-80, Merlin]

>  <experimental.target>
HLA-E (Homo sapiens, UniProt P13747)

>  <data.value>
2014

$$$$
>  <record.sequence>
RMPPRSVLL [human12]

>  <experimental.target>
HLA-E (Homo sapiens, UniProt P13747)

>  <data.value>
4273

$$$$

Proceeding to the next sequence to report its HLA-E surface expression stability (GeoMFI).
# input Which HLA-E surface expression stability (GeoMFI) reading was recorded for the sequence TGPWRSLWI [human3, TGPWRSLWI] ?
# output 421

---

System: NKG2A−/NKG2C− NK cells
protocol.description: NK cell activation markers in control NKG2A-/NKG2C- NK cells incubated with peptide and K562 expressing HLA-E
Assay type: cell-based, human
measurement.parameters: Trial 1
Where no end group is shown, it is not given here.
Entries and their percentage CCL3+ NK cells
Field format: number, assumed %, no unit text.

// known answers, use as guide
>  <record.sequence>
TLPKRGLFL [human2, TLPKRGLFL]

>  <experimental.target>
NKG2A−/NKG2C− NK cells

>  <unit.name>
%

>  <percentage CCL3+ NK cells>
31.9

$$$$
>  <record.sequence>
RMPPRSVLL [human12]

>  <experimental.target>
NKG2A−/NKG2C− NK cells

>  <unit.name>
%

>  <percentage CCL3+ NK cells>
29.3

$$$$
>  <record.sequence>
VNPGRSLFL [human5, VNPGRSLFL]

>  <experimental.target>
NKG2A−/NKG2C− NK cells

>  <unit.name>
%

>  <percentage CCL3+ NK cells>
33

$$$$
>  <record.sequence>
VMPPRTLLL [human15, peptide HLA-A 3-11 derived from the human proteome]

>  <experimental.target>
NKG2A−/NKG2C− NK cells

>  <unit.name>
%

>  <percentage CCL3+ NK cells>
34

$$$$
>  <record.sequence>
VMPGRTLCF [human11, peptide TACR3 226-234 derived from the human proteome]

>  <experimental.target>
NKG2A−/NKG2C− NK cells

>  <unit.name>
%

>  <percentage CCL3+ NK cells>
27.1

$$$$

# input Looking for the measured percentage CCL3+ NK cells of TLPERTLYL [human7, peptide ECEL1 269-277 derived from the human proteome] , can you help?
# output 30.7

# input Returns the measured percentage CCL3+ NK cells for the input sequence. Input: FLPNRSLLF [human8, peptide SLC52A3 354-362 derived from the human proteome]
# output 33.5

# input Returns the measured percentage CCL3+ NK cells for the input sequence. Input: QMPSRSLLF [human1, QMPSRSLLF]
# output 37

---

Entries and their percentage TNF+ NK cells values follow.
Tested on: NKG2A−/NKG2C− NK cells
protocol.description: NK cell activation markers in control NKG2A-/NKG2C- NK cells incubated with peptide and K562 expressing HLA-E
Type: cell-based, human
measurement.parameters: Trial 5
Where no end group is shown, it is not given here.
Hi! Could you send only the number? It should be in %, unit omitted.

Some entries whose results are on file:
>  <record.sequence>
VMAPRTLIL [VMAPRTLIL (LIL), positive control peptide, reference compound]

>  <experimental.target>
NKG2A−/NKG2C− NK cells

>  <unit.name>
%

>  <data.value>
4.32

$$$$
>  <record.sequence>
VMPGRTLCF [human11, peptide TACR3 226-234 derived from the human proteome]

>  <experimental.target>
NKG2A−/NKG2C− NK cells

>  <unit.name>
%

>  <data.value>
3.82

$$$$
>  <record.sequence>
NMPARTVLF [human14, peptide MTREX 490-498 derived from the human proteome]

>  <experimental.target>
NKG2A−/NKG2C− NK cells

>  <unit.name>
%

>  <data.value>
7.19

$$$$

# next sequence below
# input I am curious: what percentage TNF+ NK cells value has been reported for TAPARTMFL [human13, TAPARTMFL] ?
# output 8.01

---

Tested on: NKG2A+/NKG2C− NK cells
protocol.description: NK cell activation markers in NKG2A+/NKG2C- NK cells incubated with peptide and K562 expressing HLA-E (inhibition)
Type: cell-based, human
measurement.parameters: NKG2A+/NKG2C- NK cells, K562/HLA-E, Trial 2
Where no end group is shown, it is not given here.
Is percentage of CCL3+ NK cells at least 50%? Then fulfilled. If not, not fulfilled.

>  <record.sequence>
VMPPRTLLL [human15, peptide HLA-A 3-11 derived from the human proteome]

>  <class>
not fulfilled

$$$$
>  <record.sequence>
VLPHRTQFL [CMV1, novel CMV-derived peptide UL120 72-80, Merlin]

>  <class>
not fulfilled

$$$$
>  <record.sequence>
FLPNRSLLF [human8, peptide SLC52A3 354-362 derived from the human proteome]

>  <class>
fulfilled

$$$$
>  <record.sequence>
TGPWRSLWI [human3, TGPWRSLWI]

>  <class>
fulfilled

$$$$
>  <record.sequence>
VMPGRTLCF [human11, peptide TACR3 226-234 derived from the human proteome]

>  <class>
not fulfilled

$$$$

Note: attention shifts to another entry.
# input Can QMPSRSLLF [human1, QMPSRSLLF] be said to have percentage of CCL3+ NK cells at or above 50%?
# output not fulfilled
